Hey, just so you know, these numbers are from paper PMC5161541.

Target: Kappa (κ) opioid receptor (Cavia porcellus)
Sequence (P41144 whole entry): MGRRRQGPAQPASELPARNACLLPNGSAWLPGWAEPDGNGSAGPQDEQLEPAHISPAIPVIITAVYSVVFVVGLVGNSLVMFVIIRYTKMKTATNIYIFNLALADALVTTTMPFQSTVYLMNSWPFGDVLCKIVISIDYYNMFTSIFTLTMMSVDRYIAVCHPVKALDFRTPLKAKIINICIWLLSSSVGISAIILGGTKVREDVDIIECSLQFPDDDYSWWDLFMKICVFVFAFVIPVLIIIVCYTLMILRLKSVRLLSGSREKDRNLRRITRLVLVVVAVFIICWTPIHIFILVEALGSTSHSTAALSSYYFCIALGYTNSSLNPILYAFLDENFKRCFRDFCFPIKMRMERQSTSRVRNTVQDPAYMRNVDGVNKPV
Assay: Secondary site spot test, [3H]-U69593
readout-label: IC50

Ask: Param item = `I/C=C/CN1CCN(CCc2ccc3c(c2)CCO3)CC1` ; retrieve measured IC50.
Reply: > 5 µM

* * *

Biological target: Delta (δ) opioid receptor (Mus musculus, UniProt P32300)
Sequence (P32300 whole entry): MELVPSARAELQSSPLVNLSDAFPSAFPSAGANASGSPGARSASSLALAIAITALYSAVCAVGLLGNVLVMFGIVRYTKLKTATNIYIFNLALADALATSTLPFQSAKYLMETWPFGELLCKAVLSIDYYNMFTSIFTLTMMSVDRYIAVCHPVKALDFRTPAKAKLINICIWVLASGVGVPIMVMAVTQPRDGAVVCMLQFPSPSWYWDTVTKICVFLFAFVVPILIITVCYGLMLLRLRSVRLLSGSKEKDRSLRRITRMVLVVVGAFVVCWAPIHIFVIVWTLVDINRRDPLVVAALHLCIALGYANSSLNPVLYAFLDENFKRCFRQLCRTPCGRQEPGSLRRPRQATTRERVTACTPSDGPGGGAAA
Assay: Secondary site spot test, [3H]-Naltrindole
readout-label: IC50

Ask: Param item = `I/C=C/CN1CCN(CCc2ccc3c(c2)CCO3)CC1` ; retrieve measured IC50.
Reply: > 5 µM

* * *

Target: Mu (μ) opioid receptor (Cavia porcellus, UniProt A0ACM8Q262)
Sequence (A0ACM8Q262 1-400): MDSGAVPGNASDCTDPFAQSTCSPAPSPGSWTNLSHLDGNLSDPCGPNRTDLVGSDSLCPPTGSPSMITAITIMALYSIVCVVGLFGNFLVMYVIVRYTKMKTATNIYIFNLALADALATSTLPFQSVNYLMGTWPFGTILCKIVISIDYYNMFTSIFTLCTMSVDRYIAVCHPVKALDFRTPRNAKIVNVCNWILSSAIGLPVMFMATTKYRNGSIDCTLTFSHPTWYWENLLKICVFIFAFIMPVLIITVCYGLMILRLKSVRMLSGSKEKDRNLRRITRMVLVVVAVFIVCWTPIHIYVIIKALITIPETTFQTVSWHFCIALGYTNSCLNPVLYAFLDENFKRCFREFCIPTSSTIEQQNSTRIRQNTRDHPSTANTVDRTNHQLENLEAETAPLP
Experiment: Secondary site spot test, [3H]-DAMGO
Conditions: read-out: IC50 Mu; [3H]-DAMGO 0.6 nM, guinea pig membranes
readout-label: IC50

Ask: Param item = `I/C=C/CN1CCN(CCc2ccc3c(c2)CCO3)CC1` ; retrieve measured IC50.
Reply: > 5 µM

* * *

Target: sites labeled by [125I]-E-IA-BF-PIPZE (σ1 receptors) (Mus musculus)
Sequence (O55242 whole entry): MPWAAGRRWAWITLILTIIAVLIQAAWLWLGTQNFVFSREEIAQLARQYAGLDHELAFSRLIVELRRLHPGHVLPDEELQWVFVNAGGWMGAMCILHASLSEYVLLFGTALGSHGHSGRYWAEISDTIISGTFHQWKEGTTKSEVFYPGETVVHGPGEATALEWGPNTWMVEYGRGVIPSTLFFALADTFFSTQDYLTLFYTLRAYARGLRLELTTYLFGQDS
Type: binding
Conditions: means ± SEM (n = 3 – 6)
Recorded measurements of Hill (nH), one per entry
Write the number on its own, no unit after it.

# annotated cases, reported Hill (nH) shown
# compound, number
rows = [
    ("CN1CCN(CCc2ccc(Cl)c(Cl)c2)CC1", 1.3),
    ("Cc1ccccc1NC(=N)Nc1ccccc1C", 1.0),
    ("I/C=C/CN1CCN(CCc2ccc3c(c2)CCO3)CC1", 1.0),
    ("COc1cc2c(cc1OC)CN(CCCCNC(=O)c1cc(Br)cc(OC)c1OC)CC2 [Br-Mach, reference compound]", 1.1),
]

Ask: Test system sites labeled by [125I]-E-IA-BF-PIPZE (σ1 receptors) (Mus musculus); read-out Hill (nH); what value for CC(C)=CCN1CC[C@]2(C)c3cc(O)ccc3C[C@H]1[C@H]2C [(+)-Pentazocine, (+)-pentazocine] ?
Reply: 0.9

* * *

Target: σ1 receptors (Mus musculus)
readout-label: pKd
As a rule, pKd stands for the negative log10 of the concentration, concentration in M.

Ask: Param item = I/C=C/CN1CCN(CCc2ccc3c(c2)CCO3)CC1 [[^125I]-E-IA-BF-PE-PIPZE] ; retrieve measured pKd.
Reply: 10.38

* * *

Target: sites labeled by [125I]-E-IA-BF-PIPZE (σ1 receptors) (Mus musculus)
Type: binding
Settings: Cheng-Prusoff; 0.1 nM [125I]-E-IA-BF-PIPZE; means ± SEM (n = 3 – 6)
readout-label: Ki (µM)
Quick reminder: number only, in µM, skip the unit.

# compound, test-system, readout-label, value-unit, number
measured = [
    ("COc1cc2c(cc1OC)CN(CCCCNC(=O)c1cc(Br)cc(OC)c1OC)CC2 [Br-Mach, reference compound]", "sites labeled by [125I]-E-IA-BF-PIPZE (σ1 receptors) (Mus musculus)", "Ki", "µM", 6.39),
]

Let us examine a further case.
Ask: Param item = `CN1CCN(CCc2ccc(Cl)c(Cl)c2)CC1` ; retrieve measured Ki.
Reply: 0.0096

* * *

Molecular target: σ1 receptors (Mus musculus, UniProt O55242)
Sequence (O55242 whole entry): as the sequence (O55242 whole entry) above
Assay: Competition binding against [3H]-PTZ in mouse brain membranes
readout-label: Ki (nM)
Quick reminder: number only, in nM, skip the unit.

Ask: Param item = `I/C=C/CN1CCN(CCc2ccc3c(c2)CCO3)CC1` ; retrieve measured Ki.
Reply: 0.43
